Target: hNET (Homo sapiens, UniProt P23975)
Sequence (P23975 whole entry): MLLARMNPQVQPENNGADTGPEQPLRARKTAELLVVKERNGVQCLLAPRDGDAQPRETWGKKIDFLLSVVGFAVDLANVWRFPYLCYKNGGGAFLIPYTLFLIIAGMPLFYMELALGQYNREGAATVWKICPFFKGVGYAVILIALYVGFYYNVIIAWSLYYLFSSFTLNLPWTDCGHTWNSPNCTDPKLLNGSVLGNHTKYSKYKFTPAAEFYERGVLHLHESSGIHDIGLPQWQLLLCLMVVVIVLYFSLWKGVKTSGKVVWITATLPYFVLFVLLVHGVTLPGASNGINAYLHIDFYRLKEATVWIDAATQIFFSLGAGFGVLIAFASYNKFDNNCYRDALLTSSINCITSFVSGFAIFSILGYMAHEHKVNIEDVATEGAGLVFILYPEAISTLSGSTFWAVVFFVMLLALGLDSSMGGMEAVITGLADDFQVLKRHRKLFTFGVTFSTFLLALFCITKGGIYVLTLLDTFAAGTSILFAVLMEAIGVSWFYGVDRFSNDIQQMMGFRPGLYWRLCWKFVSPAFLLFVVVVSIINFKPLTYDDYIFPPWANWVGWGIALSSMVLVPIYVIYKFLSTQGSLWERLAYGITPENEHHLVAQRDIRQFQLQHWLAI
Assay: fluorescence-based norepinephrine reuptake inhibition assay (Tsuruda et al. 2010; data indicated by an asterisk)
Assay type: cell-based
Design: expressed in transfected cells; host or cells: HEK-293
Settings: norepinephrine reuptake inhibition, fluorescence-based assay (values with asterisk); read-out: NET pIC50 (converted)
value kind: IC50

molecule	IC50
Clc1ccc(OC(C2CCCC2)C2CCNC2)c(Cl)c1 (single isomer, unassigned) [Example 18-5]	≤ 10 nM

Form: Entry = Cc1ccc(F)c(O[C@@H](C2CC2)[C@H]2CCNC2)c1Cl [Example 16-62] | System = hNET (Homo sapiens, UniProt P23975) | IC50 = ____
≤ 10 nM

Form: Entry = CC(C)[C@@H](Oc1cccc2ccccc12)[C@@H]1CCNC1 [Example 14-7] | System = hNET (Homo sapiens, UniProt P23975) | IC50 = ____
≤ 100 nM

Form: Entry = CCC[C@H](Oc1c(F)cc(Cl)cc1Cl)[C@H]1CCNC1 [Example 4-40] | System = hNET (Homo sapiens, UniProt P23975) | IC50 = ____
≤ 10 nM

Form: Entry = FC(F)(F)c1c(Cl)cccc1OC(C1CCCC1)C1CCNC1 (single isomer, unassigned) [Example 18-2] | System = hNET (Homo sapiens, UniProt P23975) | IC50 = ____
≤ 100 nM

###

Molecular target: hNET (Homo sapiens, UniProt P23975)
Experiment: hNET membrane radioligand binding assay (3H-nisoxetine), Assay 1
value kind: Ki

compound	Ki
CCC[C@H](Oc1c(Cl)ccc(Cl)c1Cl)[C@H]1CCNC1	≤ 10 nM
Cc1ccc(O[C@@H](C(C)C)[C@H]2CCNC2)c(Cl)c1	≤ 10 nM
CC(C)C[C@H](Oc1ccccc1F)[C@H]1CCNC1	≤ 10 nM
Fc1ccc(Cl)c(F)c1O[C@@H](C1CC1)[C@H]1CCNC1	≤ 10 nM

So what's the measured Ki for this one? Clc1cccc(Cl)c1O[C@@H](C1CC1)[C@H]1CCNC1
≤ 10 nM

So what's the measured Ki for this one? CC(C)[C@H](Oc1c(F)cc(Cl)cc1Cl)[C@H]1CCNC1
≤ 10 nM

So what's the measured Ki for this one? CC(C)C[C@@H](Oc1ccc(Cl)cc1Cl)[C@H]1CCNC1
≤ 100 nM

So what's the measured Ki for this one? Cc1cc(Cl)ccc1O[C@@H](C1CC1)[C@@H]1CCNC1
≤ 100 nM

So what's the measured Ki for this one? CC(C)C[C@@H](Oc1c(Cl)cccc1Cl)[C@H]1CCNC1
≤ 10 nM

So what's the measured Ki for this one? Fc1ccc(F)c(O[C@@H](C2CC2)[C@H]2CCNC2)c1Cl
≤ 10 nM

So what's the measured Ki for this one? Cc1c(Cl)cccc1O[C@H](C(C)C)[C@H]1CCNC1
≤ 10 nM

So what's the measured Ki for this one? CSc1ccccc1O[C@H](C1CC1)[C@H]1CCNC1
≤ 10 nM

###

// reported IC50 for each item listed
Molecular target: UniProt P31645
Sequence (P31645 whole entry): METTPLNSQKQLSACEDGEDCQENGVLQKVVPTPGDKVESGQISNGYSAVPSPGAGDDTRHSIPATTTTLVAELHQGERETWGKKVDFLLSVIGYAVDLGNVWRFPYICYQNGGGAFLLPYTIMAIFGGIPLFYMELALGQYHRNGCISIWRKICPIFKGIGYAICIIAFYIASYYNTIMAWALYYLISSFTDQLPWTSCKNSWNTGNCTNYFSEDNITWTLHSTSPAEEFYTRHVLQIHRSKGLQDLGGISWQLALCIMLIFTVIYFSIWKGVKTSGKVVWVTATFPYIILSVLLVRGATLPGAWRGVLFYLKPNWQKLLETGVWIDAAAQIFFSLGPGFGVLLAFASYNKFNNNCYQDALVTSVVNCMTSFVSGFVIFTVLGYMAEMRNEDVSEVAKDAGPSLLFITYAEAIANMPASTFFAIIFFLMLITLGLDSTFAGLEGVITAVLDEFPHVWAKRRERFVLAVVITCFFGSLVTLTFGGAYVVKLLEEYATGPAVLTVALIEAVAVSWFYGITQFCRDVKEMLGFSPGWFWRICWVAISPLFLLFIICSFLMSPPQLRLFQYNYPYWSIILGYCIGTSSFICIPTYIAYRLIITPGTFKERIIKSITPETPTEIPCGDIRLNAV
Test: fluorescence-based serotonin reuptake inhibition assay (Tsuruda et al. 2010; data indicated by an asterisk)
Assay type: cell-based
Design: expressed in transfected cells; host or cells: HEK-293
Details: fluorescence-based assay (values with asterisk), read-out: SERT pIC50 (converted)

compound	IC50
CCC[C@H](Oc1ccc(Cl)cc1OC)[C@H]1CCNC1	≤ 10 nM

So what's the measured IC50 for this one? Clc1cccc(OC(C2CCCC2)C2CCNC2)c1Cl (stereo not drawn)
≤ 10 nM

So what's the measured IC50 for this one? CCC[C@@H](Oc1cc(Cl)cc(Cl)c1)[C@@H]1CCNC1
≤ 10 nM

So what's the measured IC50 for this one? CC(C)C[C@H](Oc1ccc(Cl)c(Cl)c1)[C@H]1CCNC1
≤ 10 nM

So what's the measured IC50 for this one? CC[C@H](Oc1cc(C)c(Cl)c(C)c1)[C@H]1CCNC1
≤ 10 nM

So what's the measured IC50 for this one? CCC[C@H](Oc1ccc(Cl)c(C)c1)[C@H]1CCNC1
≤ 10 nM
